The values you see were collected from ChEMBL document CHEMBL1155336.

- Assay method text: Ionization constant for the compound (pKa)
- Format: physicochemical
Item-by-item account of pKa
Measure: pKa

[[record]]
compound = "N=C(N)Nc1ccccc1 [PHENYLGUANIDINE]"
measure = "pKa"
numeric_result = 10.8

[[record]]
compound = "CCCC/N=C/N(C)c1ccccc1"
measure = "pKa"
numeric_result = 8.9


----------
Item-by-item account of Ratio
- Organism: Homo sapiens
- Assay method text: Selectivity ratio, the ratio of ki for human D2 receptor to Ki for human D1 receptor
Measure: Ratio

[[record]]
molecule = "COc1ccc2cc(C3=NCCc4cc(Cl)c(O)cc4N3)ccc2c1"
numeric_result = 4

[[record]]
molecule = "Oc1cc2c(cc1Cl)CCN=C(NCCc1ccccc1)N2"
numeric_result = 1

[[record]]
molecule = "CC1=NCCc2cc(Cl)c(O)cc2N1Cc1ccccc1"
numeric_result = 3

[[record]]
molecule = "CNC1=NCCc2cc(Cl)c(O)cc2N1"
numeric_result = 13

[[record]]
molecule = "COc1ccc(/C=C/C2=NCCc3cc(Cl)c(O)cc3N2)cc1"
numeric_result = 3

[[record]]
molecule = "Oc1cc2c(cc1Cl)CCN=C(NC1CCCCC1)N2"
numeric_result = 12

[[record]]
molecule = "Oc1cc2c(cc1Cl)CCN=C(C1CCCCC1)N2"
numeric_result = 7

[[record]]
molecule = "CC(C)CC1=NCCc2cc(Cl)c(O)cc2N1"
numeric_result = 17

[[record]]
molecule = "Oc1cc2c(cc1Cl)CCN=C(SCc1ccccc1)N2"
numeric_result = 2

[[record]]
molecule = "CN(C)c1ccc(/C=C/C2=NCCc3cc(Cl)c(O)cc3N2c2ccccc2)cc1"
numeric_result = 23

[[record]]
molecule = "CC1=NCCc2cc(Cl)c(O)cc2N1c1ccccc1C"
numeric_result = 31

[[record]]
molecule = "COc1ccc(C2CC2C2=NCCc3cc(Cl)c(O)cc3N2)cc1 (configuration not stated)"
numeric_result = 3

[[record]]
molecule = "Oc1cc2c(cc1Cl)CCN=C(C1CC1)N2"
numeric_result = 1

[[record]]
molecule = "CN(C)c1ccc(/C=C/C2=NCCc3cc(Cl)c(O)cc3N2C2CCCCC2)cc1"
numeric_result = 8

[[record]]
molecule = "CC1=NCCc2cc(Cl)c(O)cc2N1c1ccsc1"
numeric_result = 32

[[record]]
molecule = "Oc1cc2c(cc1Cl)CCN=C(NC1CC1)N2"
numeric_result = 6

[[record]]
molecule = "CC1=NCCc2cc(Cl)c(O)cc2N1c1ccccc1"
numeric_result = 36

[[record]]
molecule = "CC1=NCCc2cc(Cl)c(O)cc2N1c1ccc(C)cc1"
numeric_result = 55

[[record]]
molecule = "NC1=NCCc2cc(Cl)c(O)cc2N1"
numeric_result = 1

[[record]]
molecule = "Oc1cc2c(cc1Cl)CCN=C(c1ccccc1)N2"
numeric_result = 42

[[record]]
molecule = "Oc1cc2c(cc1Cl)CCN=C(NC1CCCC1)N2"
numeric_result = 12

[[record]]
molecule = "CSC1=NCCc2cc(Cl)c(O)cc2N1"
numeric_result = 5

